Biological target: UniProtKB P11712
Sequence (P11712 whole entry): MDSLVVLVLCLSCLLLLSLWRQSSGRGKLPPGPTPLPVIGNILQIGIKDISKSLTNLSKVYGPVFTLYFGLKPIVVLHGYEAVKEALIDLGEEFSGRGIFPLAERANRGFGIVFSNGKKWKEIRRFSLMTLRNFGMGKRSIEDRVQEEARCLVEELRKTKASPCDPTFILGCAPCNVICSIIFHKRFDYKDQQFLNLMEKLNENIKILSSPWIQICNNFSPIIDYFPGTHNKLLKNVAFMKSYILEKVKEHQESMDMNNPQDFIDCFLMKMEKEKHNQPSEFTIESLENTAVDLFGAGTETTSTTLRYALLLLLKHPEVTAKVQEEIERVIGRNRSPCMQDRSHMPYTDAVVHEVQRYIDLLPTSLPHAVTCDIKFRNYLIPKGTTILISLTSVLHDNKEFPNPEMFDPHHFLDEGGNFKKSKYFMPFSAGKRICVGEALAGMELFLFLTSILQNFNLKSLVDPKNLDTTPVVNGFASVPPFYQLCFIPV
Record form. Attribute: AC50. Fill in for each entry.

Qu. Recorded AC50 of `CCOC(=O)C1=C2SCC(=O)N2C(N)=C(C#N)C1` , please.
Ans. 20 µM (inconclusive)

Qu. Recorded AC50 of `O=c1c2c(-c3cccs3)csc2[nH]c(=S)n1-c1ccccc1` , please.
Ans. 8.91 µM (inconclusive)

Qu. Recorded AC50 of `CCn1c(O)c(C(c2ccccn2)c2c(O)n(CC)c(=S)[nH]c2=O)c(=O)[nH]c1=S` , please.
Ans. 31.6 µM (inconclusive)

Qu. Recorded AC50 of `O=C(Nc1ccc(-c2nc3ccccc3o2)cc1)c1ccc(N2CCOCC2)c([N+](=O)[O-])c1` , please.
Ans. 2.82 µM (inconclusive)

Qu. Recorded AC50 of `Cc1cc(NC(=S)Nc2ccccc2)ccc1Br` , please.
Ans. 11.2 µM (inconclusive)

Qu. Recorded AC50 of `Cc1ccc(C(=O)N(CN2CCCC2=O)c2ccccc2)cc1C` , please.
Ans. 0.00562 µM (inconclusive)

Qu. Recorded AC50 of Cc1ccc(NC(=O)CC2CS(=O)(=O)CC2CC(=O)Nc2ccc(C)c(C)c2)cc1C (stereo unspecified) , please.
Ans. 2.82 µM (inconclusive)

Qu. Recorded AC50 of `O=C(Oc1ccccc1)N1CCC2(CCCN(c3ccccn3)C2)CC1` , please.
Ans. 5.01 µM (inconclusive)

Qu. Recorded AC50 of `O=C(NCCN1CCN(C(=O)C(c2ccccc2)c2ccccc2)CC1)C(=O)Nc1ccccc1` , please.
Ans. 12.6 µM (inconclusive)

Qu. Recorded AC50 of `COc1cccc(CNC(=O)C2CCN(S(=O)(=O)N3CCCCC3)CC2)c1` , please.
Ans. 11.2 µM (inconclusive)

Qu. Recorded AC50 of `Br.Brc1ccc(C2=Nn3c(nnc3-c3cccnc3)SC2)s1` , please.
Ans. 22.4 µM (inconclusive)
